# assay-protocol: qHTS assay to identify small molecule agonists of the hypoxia (HIF-1) signaling pathway - cell viability counter screen (AID 1224844); also: nearly all actives have a fitted effect of over 50% in size; also: potency is read from the fitted curve at half-maximal effect
# applied-conditions: HRE-bla ME-180 viability, CellTiter-Glo luminescence, 17 h; series mostly up to 76.8 µM
Results filed as inconclusive are left out. The source made the active and inactive calls. Calls follow the shape of the full dose curve.
observable: Potency

As a guide, the following entries are already answered.
CCc1cccc(CC)c1N(COC)C(=O)CCl ... 47.4 µM (active)
Cc1ccccc1[N+](=O)[O-] ... inactive
CNC(=O)N(C)c1nnc(C(C)(C)C)s1 ... inactive
CC(C)=CC1C(C(=O)OCc2coc(Cc3ccccc3)c2)C1(C)C (stereo not given) ... inactive

With those in mind, consider the next compound.
Q: Potency for CCOP(=S)(OCC)O/N=C(\C#N)c1ccccc1 ?
A: inactive

// data source = PubChem BioAssay (Tox21)
